Recorded viability, T/C by entry
tested on: 772245-204-R-J1-PDC complex spheroid growth; experiment: Anticancer human tumor 772245-204-R-J1-PDC patient-derived rhabdomyosarcoma cell line growth inhibition [Asc]; conditions: second compound 0.0316 µM; first compound 0.00316 µM; active compounds read low
Express the result in % but write the number alone.

Quickly give me recorded viability, T/C for NC1CCC(NC2CC2c2ccccc2)CC1 (stereo not given) + CNC(C)C(=O)NC1CN(S(=O)(=O)c2cccc(S(=O)(=O)N3CCC4CCC(C(=O)NC(c5ccccc5)c5ccccc5)N4C(=O)C(NC(=O)C(C)NC)C3)c2)CCC2CCC(C(=O)NC(c3ccccc3)c3ccccc3)N2C1=O
88.5

Quickly give me recorded viability, T/C for COc1c(OCCCN2CCOCC2)ccc2c3n(c(=NC(=O)c4cnc(N)nc4)nc12)CCN3 + CNC(C)C(=O)NC1CN(S(=O)(=O)c2cccc(S(=O)(=O)N3CCC4CCC(C(=O)NC(c5ccccc5)c5ccccc5)N4C(=O)C(NC(=O)C(C)NC)C3)c2)CCC2CCC(C(=O)NC(c3ccccc3)c3ccccc3)N2C1=O
93.7

Quickly give me recorded viability, T/C for O=C(c1ccc(F)c(F)c1Nc1ccc(I)cc1F)N1CC(O)([C@@H]2CCCCN2)C1 + CNC(C)C(=O)NC1CN(S(=O)(=O)c2cccc(S(=O)(=O)N3CCC4CCC(C(=O)NC(c5ccccc5)c5ccccc5)N4C(=O)C(NC(=O)C(C)NC)C3)c2)CCC2CCC(C(=O)NC(c3ccccc3)c3ccccc3)N2C1=O
98.3

Quickly give me recorded viability, T/C for CCN1CCN(Cc2ccc(Nc3ncc(F)c(-c4cc(F)c5nc(C)n(C(C)C)c5c4)n3)nc2)CC1 + CNC(C)C(=O)NC1CN(S(=O)(=O)c2cccc(S(=O)(=O)N3CCC4CCC(C(=O)NC(c5ccccc5)c5ccccc5)N4C(=O)C(NC(=O)C(C)NC)C3)c2)CCC2CCC(C(=O)NC(c3ccccc3)c3ccccc3)N2C1=O
85.3

Quickly give me recorded viability, T/C for Cn1ncnc1[C@H]1c2n[nH]c(=O)c3cc(F)cc(c23)N[C@@H]1c1ccc(F)cc1 + CNC(C)C(=O)NC1CN(S(=O)(=O)c2cccc(S(=O)(=O)N3CCC4CCC(C(=O)NC(c5ccccc5)c5ccccc5)N4C(=O)C(NC(=O)C(C)NC)C3)c2)CCC2CCC(C(=O)NC(c3ccccc3)c3ccccc3)N2C1=O
99.7

====

system: 772245-204-R-J1-PDC complex spheroid growth; assay: Anticancer human tumor 772245-204-R-J1-PDC cell line growth inhibition [Asc]; conditions: second compound 3.16 µM; first compound 1 µM; active compounds read low;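 also: compound exposure lasted seven days; 100% = DMSO vehicle control viability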
READOUT_KIND: viability, T/C (%)
Express the result in % but write the number alone.

COMPOUND	viability, T/C (%)
CNC(C)C(=O)NC1CN(S(=O)(=O)c2cccc(S(=O)(=O)N3CCC4CCC(C(=O)NC(c5ccccc5)c5ccccc5)N4C(=O)C(NC(=O)C(C)NC)C3)c2)CCC2CCC(C(=O)NC(c3ccccc3)c3ccccc3)N2C1=O (stereo not drawn) + Cc1c(S(C)(=O)=O)c(-c2cc(F)cc(N3CCN(c4ccc(NS(=O)(=O)c5ccc(NC(CCN6CCC(C(=O)OCCCP(=O)(O)O)CC6)CSc6ccccc6)c(S(=O)(=O)C(F)(F)F)c5)cc4)CC3)c2)c(-c2ccc(Cl)cc2)n1C(C)C	25

Quickly give me recorded viability, T/C for O=C(c1cc(Cc2n[nH]c(=O)c3ccccc23)ccc1F)N1CCN(C(=O)C2CC2)CC1 + Cc1c(S(C)(=O)=O)c(-c2cc(F)cc(N3CCN(c4ccc(NS(=O)(=O)c5ccc(NC(CCN6CCC(C(=O)OCCCP(=O)(O)O)CC6)CSc6ccccc6)c(S(=O)(=O)C(F)(F)F)c5)cc4)CC3)c2)c(-c2ccc(Cl)cc2)n1C(C)C
22

Quickly give me recorded viability, T/C for COc1c(OCCCN2CCOCC2)ccc2c3n(c(=NC(=O)c4cnc(N)nc4)nc12)CCN3 + Cc1c(S(C)(=O)=O)c(-c2cc(F)cc(N3CCN(c4ccc(NS(=O)(=O)c5ccc(NC(CCN6CCC(C(=O)OCCCP(=O)(O)O)CC6)CSc6ccccc6)c(S(=O)(=O)C(F)(F)F)c5)cc4)CC3)c2)c(-c2ccc(Cl)cc2)n1C(C)C
3.48

Quickly give me recorded viability, T/C for CCN1CCN(Cc2ccc(Nc3ncc(F)c(-c4cc(F)c5nc(C)n(C(C)C)c5c4)n3)nc2)CC1 + Cc1c(S(C)(=O)=O)c(-c2cc(F)cc(N3CCN(c4ccc(NS(=O)(=O)c5ccc(NC(CCN6CCC(C(=O)OCCCP(=O)(O)O)CC6)CSc6ccccc6)c(S(=O)(=O)C(F)(F)F)c5)cc4)CC3)c2)c(-c2ccc(Cl)cc2)n1C(C)C
5.17

Quickly give me recorded viability, T/C for C=CC(=O)N1CCN(c2nc(=O)n(-c3c(C)ccnc3C(C)C)c3nc(-c4c(O)cccc4F)c(F)cc23)C(C)C1 (stereo not drawn) + Cc1c(S(C)(=O)=O)c(-c2cc(F)cc(N3CCN(c4ccc(NS(=O)(=O)c5ccc(NC(CCN6CCC(C(=O)OCCCP(=O)(O)O)CC6)CSc6ccccc6)c(S(=O)(=O)C(F)(F)F)c5)cc4)CC3)c2)c(-c2ccc(Cl)cc2)n1C(C)C
26.5

Quickly give me recorded viability, T/C for C#Cc1c(F)ccc2cc(O)cc(-c3ncc4c(N5CC6CCC(C5)N6)nc(OCC56CCCN5CC(F)C6)nc4c3F)c12 (stereo not drawn) + Cc1c(S(C)(=O)=O)c(-c2cc(F)cc(N3CCN(c4ccc(NS(=O)(=O)c5ccc(NC(CCN6CCC(C(=O)OCCCP(=O)(O)O)CC6)CSc6ccccc6)c(S(=O)(=O)C(F)(F)F)c5)cc4)CC3)c2)c(-c2ccc(Cl)cc2)n1C(C)C
37

Quickly give me recorded viability, T/C for O=C(c1ccc(F)c(F)c1Nc1ccc(I)cc1F)N1CC(O)([C@@H]2CCCCN2)C1 + Cc1c(S(C)(=O)=O)c(-c2cc(F)cc(N3CCN(c4ccc(NS(=O)(=O)c5ccc(NC(CCN6CCC(C(=O)OCCCP(=O)(O)O)CC6)CSc6ccccc6)c(S(=O)(=O)C(F)(F)F)c5)cc4)CC3)c2)c(-c2ccc(Cl)cc2)n1C(C)C
8.31

Quickly give me recorded viability, T/C for C=C(F)C(=O)N1CCN(c2nc(OCC3CCCN3C)nc3c2CCN(c2cccc4cccc(Cl)c24)C3)CC1CC#N (stereo not drawn) + Cc1c(S(C)(=O)=O)c(-c2cc(F)cc(N3CCN(c4ccc(NS(=O)(=O)c5ccc(NC(CCN6CCC(C(=O)OCCCP(=O)(O)O)CC6)CSc6ccccc6)c(S(=O)(=O)C(F)(F)F)c5)cc4)CC3)c2)c(-c2ccc(Cl)cc2)n1C(C)C
20.1

====

system: 772245-204-R-J1-PDC complex spheroid growth; assay: Anticancer human tumor 772245-204-R-J1-PDC cell line growth inhibition [Asc]; settings: second compound 3 µM; first compound 10 µM; active = viability on the fitted dose curve at most 10% of control; inactive = the rest;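 also: compound exposure lasted seven days; 100% = DMSO vehicle control viability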
Classes to choose from: active, inactive

Illustrative cases are given below, each with its answer.
MOLECULE	CLASS
C=C(F)C(=O)N1CCN(c2nc(OCC3CCCN3C)nc3c2CCN(c2cccc4cccc(Cl)c24)C3)CC1CC#N (centres undefined) + CCN1C(C(=O)NC23CCC(C(=O)O)(CC2)CC3)C(c2cccc(Cl)c2F)C2(C(=O)Nc3cc(Cl)ccc32)C12CCCCC2	active
C=CC(=O)N1CCN(c2nc(=O)n(-c3c(C)ccnc3C(C)C)c3nc(-c4c(O)cccc4F)c(F)cc23)C(C)C1 (centres undefined) + CCN1C(C(=O)NC23CCC(C(=O)O)(CC2)CC3)C(c2cccc(Cl)c2F)C2(C(=O)Nc3cc(Cl)ccc32)C12CCCCC2	inactive

What classification did C#Cc1c(F)ccc2cc(O)cc(-c3ncc4c(N5CC6CCC(C5)N6)nc(OCC56CCCN5CC(F)C6)nc4c3F)c12 (centres undefined) + CCN1C(C(=O)NC23CCC(C(=O)O)(CC2)CC3)C(c2cccc(Cl)c2F)C2(C(=O)Nc3cc(Cl)ccc32)C12CCCCC2 end up with in this test?
inactive

What classification did O=C(c1cc(Cc2n[nH]c(=O)c3ccccc23)ccc1F)N1CCN(C(=O)C2CC2)CC1 + CCN1C(C(=O)NC23CCC(C(=O)O)(CC2)CC3)C(c2cccc(Cl)c2F)C2(C(=O)Nc3cc(Cl)ccc32)C12CCCCC2 end up with in this test?
inactive

====

system: 772245-204-R-J1-PDC complex spheroid growth; assay: Anticancer human tumor 772245-204-R-J1-PDC cell line growth inhibition [Asc]; details: second compound 0.01 µM; first compound 10 µM; active means viability on the fitted dose curve at most 10% of control; inactive means the rest;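 also: compound exposure lasted seven days; 100% = DMSO vehicle control viability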
Classes to choose from: class 1 = active, class 0 = inactive

COMPOUND	CLASS
O=C(c1cc(Cc2n[nH]c(=O)c3ccccc23)ccc1F)N1CCN(C(=O)C2CC2)CC1 + CNC(C)C(=O)NC1CN(S(=O)(=O)c2cccc(S(=O)(=O)N3CCC4CCC(C(=O)NC(c5ccccc5)c5ccccc5)N4C(=O)C(NC(=O)C(C)NC)C3)c2)CCC2CCC(C(=O)NC(c3ccccc3)c3ccccc3)N2C1=O	class 0
C#Cc1c(F)ccc2cc(O)cc(-c3ncc4c(N5CC6CCC(C5)N6)nc(OCC56CCCN5CC(F)C6)nc4c3F)c12 (centres undefined) + CNC(C)C(=O)NC1CN(S(=O)(=O)c2cccc(S(=O)(=O)N3CCC4CCC(C(=O)NC(c5ccccc5)c5ccccc5)N4C(=O)C(NC(=O)C(C)NC)C3)c2)CCC2CCC(C(=O)NC(c3ccccc3)c3ccccc3)N2C1=O	class 0

What classification did C=C(F)C(=O)N1CCN(c2nc(OCC3CCCN3C)nc3c2CCN(c2cccc4cccc(Cl)c24)C3)CC1CC#N (centres undefined) + CNC(C)C(=O)NC1CN(S(=O)(=O)c2cccc(S(=O)(=O)N3CCC4CCC(C(=O)NC(c5ccccc5)c5ccccc5)N4C(=O)C(NC(=O)C(C)NC)C3)c2)CCC2CCC(C(=O)NC(c3ccccc3)c3ccccc3)N2C1=O end up with in this test?
class 1

What classification did C=CC(=O)N1CCN(c2nc(=O)n(-c3c(C)ccnc3C(C)C)c3nc(-c4c(O)cccc4F)c(F)cc23)C(C)C1 (centres undefined) + CNC(C)C(=O)NC1CN(S(=O)(=O)c2cccc(S(=O)(=O)N3CCC4CCC(C(=O)NC(c5ccccc5)c5ccccc5)N4C(=O)C(NC(=O)C(C)NC)C3)c2)CCC2CCC(C(=O)NC(c3ccccc3)c3ccccc3)N2C1=O end up with in this test?
class 0
